// provenance: patent US20250177324A1

# protocol_text: Solid-state chemical stability under different storage conditions (liquid chromatography)
# Format: physicochemical
# protocol_conditions: 40° C., 75% RH; 30 days
Counter-ions that a name gives are not always drawn.
measure_name: Stability of solid state compound, 30 Days (%)
# number only, unit % dropped from output

// solved cases for Stability of solid state compound, 30 Days (%) follow
{"molecule": "CN[C@]1(c2ccc(C(F)(F)F)cc2)CCC[C@@](C)(O)C1=O.Cl", "data_value": 99.77}
{"molecule": "CC1(O)CCCC(N)(c2cccc(OC(F)(F)F)c2F)C1=O (stereo not drawn) [Compound 43, hydrochloride]", "data_value": 98.75}
{"molecule": "Cl.[2H]C([2H])([2H])N[C@@]1(c2ccc(C(F)(F)F)cc2)CCC[C@](C)(O)C1=O", "data_value": 99.84}
{"molecule": "CNC1(c2cccc(F)c2F)CCCC(C)(O)C1=O.Cl (stereo not drawn)", "data_value": 99.22}
{"molecule": "CNC1(c2cccc(OC(F)(F)F)c2F)CCCC(C)(O)C1=O.Cl (stereo not drawn)", "data_value": 99.50}

Q: State the recorded Stability of solid state compound, 30 Days (%) for this entry: CNC1(c2c(F)cc(F)cc2F)CCCC(C)(O)C1=O.Cl (stereo not drawn)
Result: 99.14

Q: Fill in the blank: the reported Stability of solid state compound, 30 Days (%) of Cl.N[C@]1(c2ccc(C(F)(F)F)cc2)CCC[C@H](O)C1=O [Comparative compound 2, reference compound] is ____.
Result: 94.26

----------
# protocol_text: Brain tissue distribution study in rats
# Type: in vivo
# protocol_conditions: male, rat, po; SD rats, 10 mg/kg gavage, plasma
measure_name: Cmax (ng/mL)
Reply with just the number (in ng/mL).

Q: Which Cmax is reported for this molecule? CN[C@@]1(c2ccc(C(F)(F)F)cc2)CCC[C@](C)(O)C1=O.Cl
Result: 1600

----------
# protocol_text: Solid-state chemical stability under different storage conditions (liquid chromatography)
# Format: physicochemical
# protocol_conditions: 40° C., 75% RH; 60 days
measure_name: Stability of solid state compound, 60 Days (%)
Field: numeric (%). Do not append units.

Solved entries:
{"compound": "Cl.N[C@@]1(c2ccc(C(F)(F)F)cc2)CCC[C@@H](O)C1=O [Comparative compound 1, reference compound]", "data_value": 91.57}
{"compound": "C[C@@]1(O)CCC[C@@](N)(c2ccc(C(F)(F)F)cc2)C1=O.Cl", "data_value": 99.88}

Q: Please report the recorded Stability of solid state compound, 60 Days (%) for Cl.N[C@]1(c2ccc(C(F)(F)F)cc2)CCC[C@H](O)C1=O [Comparative compound 2, reference compound] .
Result: 89.97

Q: Could you share which Stability of solid state compound, 60 Days (%) value was measured for C[C@]1(O)CCC[C@@](N)(c2ccc(C(F)(F)F)cc2)C1=O.Cl ?
Result: 99.20

----------
Consider the following compounds and their measured inhibition in vivo at 20 mg/kg readings.
# System: C57 mice
# protocol_text: Forced swim test of oral administration in mice (antidepressant activity)
# Type: in vivo
# protocol_conditions: Mus musculus, po; reduction of immobility time vs blank group; single gavage 20 mg/kg, test 1 h after dosing; read-out: 1 h inhibition (%)
Where a name gives a salt, the structure may show the parent alone.

{"compound": "CN[C@@]1(c2ccc(C(F)(F)F)cc2)CCC[C@@](C)(O)C1=O.Cl [Compound 71, hydrochloride]", "inhibition in vivo at 20 mg/kg": "42.4%"}
{"compound": "C[C@]1(O)CCC[C@@](N)(c2ccc(C(F)(F)F)cc2)C1=O.Cl [Compound 54, hydrochloride]", "inhibition in vivo at 20 mg/kg": "33%"}
{"compound": "CN[C@@]1(c2cccc(OC(F)(F)F)c2)CCC[C@](C)(O)C1=O.Cl [Compound 68, hydrochloride]", "inhibition in vivo at 20 mg/kg": "26.2%"}

Q: Recorded inhibition in vivo at 20 mg/kg for C[C@@H]1CC[C@@](N)(c2ccccc2Cl)C(=O)[C@@H]1O [Comparative compound 3, reference compound] with C57 mice, please?
Result: 22.6%

Q: Form field - read-out: inhibition in vivo at 20 mg/kg; system: C57 mice; submitted item: CNCCC(Oc1ccc(C(F)(F)F)cc1)c1ccccc1 (stereo not shown) [Fluoxetine, reference compound]
Result: 2.4%

Q: Checklist item: inhibition in vivo at 20 mg/kg tested on C57 mice, entry CN[C@@]1(c2cccc(OC(F)(F)F)c2F)CCC[C@](C)(O)C1=O [Compound 57, hydrochloride] , value?
Result: 42.2%

Q: Observed inhibition in vivo at 20 mg/kg on C57 mice for Cl.[2H]C([2H])([2H])N[C@@]1(c2ccc(C(F)(F)F)cc2)CCC[C@](C)(O)C1=O , please.
Result: 65.2%
